EXPERIMENT DESCRIPTION: NCI Yeast Anticancer Drug Screen. Data for the bub3 strain (AID 167)
CONDITION SUMMARY: S. cerevisiae bub3 mutant strain, at 50.0 µM (retest, dose inferred, filed as 5.0), active compounds read high
This is part of a sample that, as a whole, favours compounds with a hit. Of some 79,000 tested, about 15% had one in any assay. The source made the active and inactive calls. Cut-off read from the data, not from the text of the source: active = growth inhibition above about 70%; inactive = the rest.
Property: growth inhibition; scope: individual molecules
REPORTED PROPERTY: growth inhibition

INSERT INTO results (molecule, reported_property, reading) VALUES
  ('O=CC(=O)CC(O)CO (stereo unspecified)', 'growth inhibition', '87% (active)'),
  ('Cc1ccc2c(c1)C(O)(c1ccccc1)CCS2 (stereo unspecified)', 'growth inhibition', '96% (active)'),
  ('CSc1ccc(/C=C2\CNC/C(=C\c3ccc(SC)cc3)C2=O)cc1', 'growth inhibition', '23% (inactive)'),
  ('CC(=O)OC(CCl)C(C)[N+](=O)[O-] (stereo unspecified)', 'growth inhibition', '99% (active)'),
  ('Cc1cc(=O)c2cc(N=Cc3ccc([N+](=O)[O-])o3)ccc2o1', 'growth inhibition', '6% (inactive)'),
  ('O=C1/C(=C/c2cccc(O)c2)SC(=S)N1/C=C\c1nc2ccccc2[nH]c1=O', 'growth inhibition', '-5% (inactive)'),
  ('COc1ccc(S(=O)(=O)O)cc1-n1nc(C(=O)Nc2ccccc2)n[n+]1-c1cc(S(=O)(=O)[O-])ccc1OC', 'growth inhibition', '2% (inactive)'),
  ('O=C1C(Cl)=C(c2ccc([N+](=O)[O-])cc2)C(=O)c2c(O)cccc21', 'growth inhibition', '94% (active)'),
  ('COc1cc2c(Cc3ccc(OC)c(OC)c3)[n+](Cc3ccccc3)ccc2cc1NCc1ccccc1', 'growth inhibition', '99% (active)'),
  ('O=C1OC(=O)C2C1C1C(c3ccccc3)=C(c3ccccc3)C2(O)C2C(=O)OC(=O)C12 (stereo unspecified)', 'growth inhibition', '4% (inactive)'),
  ('Cc1cccc(CC(C)(C)C)c1NC(=O)C(=O)C(C(=O)c1ccc2ccccc2c1)C1OC(=O)c2ccccc21 (stereo unspecified)', 'growth inhibition', '93% (active)'),
  ('N#CC(=C1C=CC(=NOC(=O)Nc2ccccc2)C=C1)c1ccccc1', 'growth inhibition', '98% (active)'),
  ('COc1ccc(-c2c(-c3ccccc3)c(C)nc3[nH]c(=S)[nH]c(=S)c23)cc1OC', 'growth inhibition', '91% (active)'),
  ('C[N+](C)(C)CC(=O)N/N=C(\C(=O)NC1=C(Cl)C(=O)c2ccccc2C1=O)C(C#N)c1nc(-c2ccc([N+](=O)[O-])cc2)cs1 (stereo unspecified)', 'growth inhibition', '97% (active)'),
  ('COc1ccc(/C=C2\CN(C)C/C(=C\c3ccc(OC)cc3)C2=O)cc1', 'growth inhibition', '85% (active)'),
  ('FC(F)(F)c1ccccc1NC(=S)SCc1ccc(Cl)cc1', 'growth inhibition', '90% (active)'),
  ('O=S(=O)(CCCCl)SCCCCl', 'growth inhibition', '100% (active)'),
  ('O=[N+]([O-])c1ccc(C(Nc2ccccc2)c2ccc3cccnc3c2O)cc1 (stereo unspecified)', 'growth inhibition', '85% (active)'),
  ('O=[N+]([O-])c1ccc(CC(c2ccc([N+](=O)[O-])cc2)(c2ccc([N+](=O)[O-])cc2)c2ccc([N+](=O)[O-])cc2)cc1', 'growth inhibition', '4% (inactive)'),
  ('COC(=O)/C(C#N)=C1\NC(=O)CC(c2ccccc2)C1C#N (stereo unspecified)', 'growth inhibition', '13% (inactive)'),
  ('COc1ccc(NC2Oc3cc4c(cc3C(c3cccc(OC)c3OC)C2C)OCO4)cc1 (stereo unspecified)', 'growth inhibition', '13% (inactive)');
